Test: MPA trough at 12 h in study patients by CYP3A5*3*6*7 metabolic group
Conditions: both sexes, human, in vivo, oral, CYP3A5*3*6*7 Extensive group (N 7); ECMPS at steady state
Method: Tacrolimus doses were adjusted to 4–9 ng/ml troughs based upon time post-transplant and clinical response using a program-specific minimization protocol. ECMPS was dose adjusted based upon clinical response. Estimated glomerular filtration rate (e-GFR) was calculated using the four-factor MDRD equation ([Levey et al., 1999]). Medication adherence was verified by transplant nurse clinician and medication adherence assessment by transplant pharmacist at enrollment. […]
Result type: concentration at 12 h (ng/mL)
Numbers only, in ng/mL.

Entry COc1c(C)c2c(c(O)c1C/C=C(\C)CCC(=O)O)C(=O)OC2 , concentration at 12 h reported as 42

###

Test: Tacrolimus pharmacokinetics stratified by CYP3A5 metabolic composite and ABCB1 3435 genotype
Type: in vivo, human
Conditions: human, whole blood, oral, 2.46 mg; ABCB1 3534 CC, CYP3A5 Poor (N 13); read-out: C12hr
Method: To assess the role of both CYP3A5 and ABCB1 variants on tacrolimus pharmacokinetics the CYP3A5 metabolic composite groups and the ABCB1 3435C > T (rs1045642) were included in a single analysis. […] Significant effects of both CYP3A5 and ABCB1 variants on tacrolimus pharmacokinetics was assessed using multivariate analysis of variance. […]
Result type: concentration at 12 h
Quick note: unit goes after the number.

Entry C=CC[C@@H]1/C=C(\C)C[C@H](C)C[C@H](OC)[C@H]2O[C@@](O)(C(=O)C(=O)N3CCCC[C@H]3C(=O)O[C@H](/C(C)=C/[C@@H]3CC[C@@H](O)[C@H](OC)C3)[C@H](C)[C@@H](O)CC1=O)[C@H](C)C[C@@H]2OC , concentration at 12 h reported as 6.94 ng/mL

###

test: Tacrolimus pharmacokinetics stratified by CYP3A5 metabolic composite and ABCB1 3435 genotype; assay type: in vivo, human; settings: human, whole blood, oral, 3.55 mg; ABCB1 3534 CT and TT, CYP3A5 Intermediate (N 10); read-out: C12hr
Result type: concentration at 12 h (ng/mL)
One number for each entry, in ng/mL.

Entry C=CC[C@@H]1/C=C(\C)C[C@H](C)C[C@H](OC)[C@H]2O[C@@](O)(C(=O)C(=O)N3CCCC[C@H]3C(=O)O[C@H](/C(C)=C/[C@@H]3CC[C@@H](O)[C@H](OC)C3)[C@H](C)[C@@H](O)CC1=O)[C@H](C)C[C@@H]2OC [tacrolimus] , concentration at 12 h reported as 8.37

###

Assay: Tacrolimus pharmacokinetics stratified by CYP3A5 metabolic composite and ABCB1 3435 genotype
Format: in vivo, human
Settings: human, whole blood, oral, 3.55 mg; ABCB1 3534 CT and TT, CYP3A5 Intermediate (N 10)
Protocol: To assess the role of both CYP3A5 and ABCB1 variants on tacrolimus pharmacokinetics the CYP3A5 metabolic composite groups and the ABCB1 3435C > T (rs1045642) were included in a single analysis. […] Significant effects of both CYP3A5 and ABCB1 variants on tacrolimus pharmacokinetics was assessed using multivariate analysis of variance. […]
Result type: Cmax (ng/mL)
Give bare numbers, in ng/mL.

Entry C=CC[C@@H]1/C=C(\C)C[C@H](C)C[C@H](OC)[C@H]2O[C@@](O)(C(=O)C(=O)N3CCCC[C@H]3C(=O)O[C@H](/C(C)=C/[C@@H]3CC[C@@H](O)[C@H](OC)C3)[C@H](C)[C@@H](O)CC1=O)[C@H](C)C[C@@H]2OC , Cmax reported as 23.3

###

experiment: Tacrolimus pharmacokinetics stratified by CYP3A5 metabolic composite and ABCB1 3435 genotype; assay type: in vivo, human; details: human, whole blood, oral, 4 mg; ABCB1 3534 CC, CYP3A5 Intermediate (N 10); read-out: C12hr
Result type: concentration at 12 h (ng/mL)
Numbers only, in ng/mL.

Entry C=CC[C@@H]1/C=C(\C)C[C@H](C)C[C@H](OC)[C@H]2O[C@@](O)(C(=O)C(=O)N3CCCC[C@H]3C(=O)O[C@H](/C(C)=C/[C@@H]3CC[C@@H](O)[C@H](OC)C3)[C@H](C)[C@@H](O)CC1=O)[C@H](C)C[C@@H]2OC , concentration at 12 h reported as 7.55

###

assay: Tacrolimus pharmacokinetics stratified by CYP3A5 metabolic composite and ABCB1 3435 genotype; format: in vivo, human; settings: both sexes, human, whole blood, oral, 5.67 mg; ABCB1 3534 CC, CYP3A5 Extensive (N 6)
Result type: Tmax (h)
One number for each entry, in h.

Entry C=CC[C@@H]1/C=C(\C)C[C@H](C)C[C@H](OC)[C@H]2O[C@@](O)(C(=O)C(=O)N3CCCC[C@H]3C(=O)O[C@H](/C(C)=C/[C@@H]3CC[C@@H](O)[C@H](OC)C3)[C@H](C)[C@@H](O)CC1=O)[C@H](C)C[C@@H]2OC , Tmax reported as 1.78

###

Test: Tacrolimus pharmacokinetics stratified by CYP3A5 metabolic composite and ABCB1 3435 genotype
Assay type: in vivo, human
Conditions: both sexes, human, whole blood, oral, 2.46 mg; ABCB1 3534 CC, CYP3A5 Poor (N 13)
Protocol: To assess the role of both CYP3A5 and ABCB1 variants on tacrolimus pharmacokinetics the CYP3A5 metabolic composite groups and the ABCB1 3435C > T (rs1045642) were included in a single analysis. […] Significant effects of both CYP3A5 and ABCB1 variants on tacrolimus pharmacokinetics was assessed using multivariate analysis of variance. […]
Result type: Tmax
Quick note: unit goes after the number.

Entry C=CC[C@@H]1/C=C(\C)C[C@H](C)C[C@H](OC)[C@H]2O[C@@](O)(C(=O)C(=O)N3CCCC[C@H]3C(=O)O[C@H](/C(C)=C/[C@@H]3CC[C@@H](O)[C@H](OC)C3)[C@H](C)[C@@H](O)CC1=O)[C@H](C)C[C@@H]2OC , Tmax reported as 1.94 h

###

experiment: MPA trough at 12 h in study patients by CYP3A5*3*6*7 metabolic group; details: both sexes, human, in vivo, oral, CYP3A5*3*6*7 Poor group (N 35); ECMPS at steady state
Result type: concentration at 12 h (ng/mL)
Numbers only, in ng/mL.

Entry COc1c(C)c2c(c(O)c1C/C=C(\C)CCC(=O)O)C(=O)OC2 [MPA, mycophenolic acid] , concentration at 12 h reported as 32

###

test: Tacrolimus pharmacokinetics stratified by CYP3A5 metabolic composite and ABCB1 3435 genotype; format: in vivo, human; settings: both sexes, human, whole blood, oral, 4 mg; ABCB1 3534 CC, CYP3A5 Intermediate (N 10)
Result type: Tmax (h)
One number for each entry, in h.

Entry C=CC[C@@H]1/C=C(\C)C[C@H](C)C[C@H](OC)[C@H]2O[C@@](O)(C(=O)C(=O)N3CCCC[C@H]3C(=O)O[C@H](/C(C)=C/[C@@H]3CC[C@@H](O)[C@H](OC)C3)[C@H](C)[C@@H](O)CC1=O)[C@H](C)C[C@@H]2OC , Tmax reported as 1.87

###

experiment: Tacrolimus pharmacokinetics stratified by CYP3A5 metabolic composite and ABCB1 3435 genotype; assay type: in vivo, human; details: human, whole blood, oral, 4 mg; ABCB1 3534 CC, CYP3A5 Intermediate (N 10)
Result type: Cmax (ng/mL)
Give bare numbers, in ng/mL.

Entry C=CC[C@@H]1/C=C(\C)C[C@H](C)C[C@H](OC)[C@H]2O[C@@](O)(C(=O)C(=O)N3CCCC[C@H]3C(=O)O[C@H](/C(C)=C/[C@@H]3CC[C@@H](O)[C@H](OC)C3)[C@H](C)[C@@H](O)CC1=O)[C@H](C)C[C@@H]2OC [tacrolimus] , Cmax reported as 18.6

###

assay: Tacrolimus pharmacokinetics stratified by CYP3A5 metabolic composite and ABCB1 3435 genotype; format: in vivo, human; conditions: human, whole blood, oral, 2.46 mg; ABCB1 3534 CC, CYP3A5 Poor (N 13); read-out: CL/LBW (converted)
Result type: clearance (mL/min/kg)
Answers are plain numbers, in mL/min/kg.

Entry C=CC[C@@H]1/C=C(\C)C[C@H](C)C[C@H](OC)[C@H]2O[C@@](O)(C(=O)C(=O)N3CCCC[C@H]3C(=O)O[C@H](/C(C)=C/[C@@H]3CC[C@@H](O)[C@H](OC)C3)[C@H](C)[C@@H](O)CC1=O)[C@H](C)C[C@@H]2OC , clearance reported as 6.17

###

assay: Tacrolimus pharmacokinetics stratified by CYP3A5 metabolic composite and ABCB1 3435 genotype; format: in vivo, human; settings: human, whole blood, oral, 5.08 mg; ABCB1 3534 CT and TT, CYP3A5 Extensive (N 6); read-out: C12hr
Result type: concentration at 12 h (ng/mL)
One number for each entry, in ng/mL.

Entry C=CC[C@@H]1/C=C(\C)C[C@H](C)C[C@H](OC)[C@H]2O[C@@](O)(C(=O)C(=O)N3CCCC[C@H]3C(=O)O[C@H](/C(C)=C/[C@@H]3CC[C@@H](O)[C@H](OC)C3)[C@H](C)[C@@H](O)CC1=O)[C@H](C)C[C@@H]2OC [tacrolimus] , concentration at 12 h reported as 6.58
